target: Beta-3 adrenergic receptor (Homo sapiens, UniProt P13945)
Sequence (P13945 whole entry): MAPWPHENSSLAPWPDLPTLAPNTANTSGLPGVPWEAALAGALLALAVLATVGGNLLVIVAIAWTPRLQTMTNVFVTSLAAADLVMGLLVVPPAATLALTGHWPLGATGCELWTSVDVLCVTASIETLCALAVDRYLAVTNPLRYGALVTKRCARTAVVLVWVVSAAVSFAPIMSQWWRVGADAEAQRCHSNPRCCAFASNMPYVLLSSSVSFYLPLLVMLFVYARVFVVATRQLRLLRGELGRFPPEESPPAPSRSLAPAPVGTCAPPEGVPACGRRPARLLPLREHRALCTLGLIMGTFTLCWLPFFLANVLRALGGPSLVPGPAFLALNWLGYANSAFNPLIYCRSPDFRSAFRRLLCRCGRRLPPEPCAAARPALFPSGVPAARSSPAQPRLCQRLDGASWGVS
EC50 vs 300 nM: less than gives Criterion met; not less than gives Criterion not met.

| COMPOUND | ASSIGNED CATEGORY |
| --- | --- |
| NC(=O)Nc1cccc(COCCOCCCCCCNC[C@H](O)c2ccc(O)c(CO)c2)c1 | Criterion not met |
| NS(=O)(=O)c1ccc(COCCOCCCCCCNC[C@H](O)c2ccc(O)c(CO)c2)cc1 | Criterion not met |
| CC(=O)O.OCc1cc([C@@H](O)CNCCCCCCOCCOCc2ccccc2)ccc1O | Criterion met |
| CC(=O)O.OCc1cc([C@@H](O)CNCCCCCCOCCOCc2c(Cl)cccc2Cl)ccc1O [VILANTEROL ACETATE] | Criterion not met |
| OCc1cc([C@@H](O)CNCCCCCCOCCOCc2cc(Cl)ccc2Cl)ccc1O | Criterion met |
| CC(=O)O.Cc1cc(C)cc(COCCOCCCCCCNC[C@H](O)c2ccc(O)c(CO)c2)c1 | Criterion met |
| OCc1cc([C@@H](O)CNCCCCCCOCCOCc2cccc(O)c2)ccc1O | Criterion met |

* * *

experiment: Oral bioavailability in Han Wistar rat at 2 mg/kg after 8 hrs by LC/MS/MS analysis; assay type: ADME, organism-based; settings: in vivo
ASSAY READOUT: bioavailability

| COMPOUND | EXPERIMENTAL RESULT |
| --- | --- |
| CC(=O)O.OCc1cc([C@@H](O)CNCCCCCCOCCOCc2c(Cl)cccc2Cl)ccc1O [VILANTEROL ACETATE] | < 5% |

* * *

assay: Oral bioavailability in rat; type: ADME, organism-based; settings: in vivo

| COMPOUND | UNIT OF MEASURE | bioavailability |
| --- | --- | --- |
| OCc1cc(C(O)CNCCCCCCOCCCCc2ccccc2)ccc1O (stereo unspecified) [SALMETEROL] | % | 10 |

Value source: ChEMBL document CHEMBL1155518
